Molecular target: T1, human EpCAM expressed on cells (CHO, Colo205, 293) (human, UniProt P16422 24-314)
T1 construct: whole, on cells; also called CHO cells expressing human EpCAM; Colo205 cells expressing human EpCAM
T1 sequence (looked up): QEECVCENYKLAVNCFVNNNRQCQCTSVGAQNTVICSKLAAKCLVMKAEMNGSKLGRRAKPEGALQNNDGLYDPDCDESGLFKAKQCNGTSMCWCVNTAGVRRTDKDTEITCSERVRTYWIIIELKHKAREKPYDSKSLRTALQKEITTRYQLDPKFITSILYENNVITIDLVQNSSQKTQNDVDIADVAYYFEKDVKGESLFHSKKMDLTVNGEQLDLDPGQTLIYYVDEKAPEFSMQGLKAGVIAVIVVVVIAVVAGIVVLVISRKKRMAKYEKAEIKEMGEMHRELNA
Assay: FACS on Colo205 cells expressing human EpCAM, pH 6.0
Task for the reader: assign each of the following binders its reported EC50.
Give the value in µg/mL but do not write µg/mL after it.

Exam item: I have this binder here, BAP-105.4-01-02 (antibody, V domains shown, Humanized) VH: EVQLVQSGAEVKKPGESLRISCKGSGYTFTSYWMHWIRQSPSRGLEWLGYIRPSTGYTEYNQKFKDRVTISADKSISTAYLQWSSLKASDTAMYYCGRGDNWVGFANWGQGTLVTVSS VL: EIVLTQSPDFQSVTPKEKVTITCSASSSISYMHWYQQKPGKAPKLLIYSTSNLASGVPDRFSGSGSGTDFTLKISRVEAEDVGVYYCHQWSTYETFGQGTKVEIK , and I need its recorded EC50.
Marked response: 0.273

Exam item: I have this binder here, BAP-105.4-01-05 (antibody, V domains shown, Humanized) VH: EVQLVQSGAEVKKPGATVKISCKVSGYTFTSYWMHWIRQPPGKGLEWIGYIRPSTGYTEYNQKFKDRFTISRDNSKNTLYLQMNSLRAEDTAVYYCGRGDNWVGFANWGQGTLVTVSS VL: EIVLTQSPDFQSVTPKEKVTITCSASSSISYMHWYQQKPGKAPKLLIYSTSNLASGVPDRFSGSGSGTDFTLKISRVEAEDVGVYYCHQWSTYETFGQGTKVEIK , and I need its recorded EC50.
Marked response: 0.342

Exam item: I have this binder here, BAP-105.4-02-01 (antibody, V domains shown, Humanized) VH: EVQLVQSGAEVKKPGATVKISCKVSGYTFTSYWMHWVRQAPGQGLEWMGYIRPSTGYTEYNQKFKDRFTISRDNSKNTLYLQMNSLRAEDTAVYYCGRGDNWVGFANWGQGTLVTVSS VL: EIVMTQSPATLSVSPGERATLSCSASSSISYMHWYQQKPGKAPKLLIYSTSNLASGVPSRFSGSGSGTEFTLTISSLQPDDFATYYCHQWSTYETFGQGTKVEIK , and I need its recorded EC50.
Marked response: 0.321

Exam item: I have this binder here, BAP-105-01-01 (antibody, V domains shown, Non-conditionally active control; also called template antibody (WT)) VH: QVQLQQSGAELAKPGASVKVSCKASGYTFTSYWMHWVKQRPGQGLEWIGYIRPSTGYTEYNQKFKDKATLTADKSSSTAYMQLSSLTFEDSAVYYCGRGDNWVGFANWGQGTLVTVSA VL: QIVLTQSPAIMSASLGEEIALTCSASSSISYMHWYQQKSGTSPKLLIYSTSNLASGVPSRFSGSGSGTFYSLTISSVEAEDAADYFCHQWSTYHTFGSGTKLEIK , and I need its recorded EC50.
Marked response: 0.263

Exam item: I have this binder here, BAP-105.4-03-02 (antibody, V domains shown, Humanized) VH: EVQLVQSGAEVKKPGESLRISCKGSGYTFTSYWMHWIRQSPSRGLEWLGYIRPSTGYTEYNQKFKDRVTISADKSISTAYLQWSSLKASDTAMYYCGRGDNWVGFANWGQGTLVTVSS VL: EIVMTQSPATLSVSPGERATLSCSASSSISYMHWYQQKPGKAPKLLIYSTSNLASGIPPRFSGSGYGTDFTLTINNIESEDAAYYFCHQWSTYETFGQGTKVEIK , and I need its recorded EC50.
Marked response: 0.497
